test: S6 kinase pathway phospho-S6 level changes – cell-based, A549, cytoblot, luminescence, serum-stimulated, primary screen (AID 1158); conditions: 5 h, higher = more signal;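 note: serum-stimulated A549 lung adenocarcinoma cells; signal is phosphorylated S6 detected by cytoblot immunostaining with HRP secondary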
READOUT_NAME: z-score
The answer should be written as a number, with no unit following it.

Some entries whose results are on file:
STRUCTURE_STRING: C[N+](C)(C)CCCCCCNC(=O)[C@@H]1C[C@@H]2C(=O)NCC(=O)N2[C@@H]1c1cccc(OCCO)c1
READOUT_NAME: z-score
TEST_RESULT: 0.927
//
STRUCTURE_STRING: COCCCNC(=O)[C@]1(CCS(=O)(=O)c2ccccc2)N=C(c2ccc(OCCCO)cc2)O[C@@H]1c1ccccc1
READOUT_NAME: z-score
TEST_RESULT: -0.108

// below: z-score requested for another molecule
Input: Reported z-score for COCCOC(=O)N1C(=O)[C@@]2(c3cc(C#CCCO)ccc31)[C@H](C(=O)N1CCc3cc(OC)c(OC)cc3C1)[C@H]1C(=O)O[C@H](c3ccccc3)[C@H](c3ccccc3)N1[C@@H]2c1ccc(OCCO)cc1 : what is it?
Output: 1.26

Cited source for all entries: PubChem BioAssay
